Molecular target: mutant EGFR Exon19del transformed Ba/F3 cells (Homo sapiens, UniProt P00533, cells depend on it, form not given)
Sequence (P00533 with tags, fused parts or gaps DEL746-750): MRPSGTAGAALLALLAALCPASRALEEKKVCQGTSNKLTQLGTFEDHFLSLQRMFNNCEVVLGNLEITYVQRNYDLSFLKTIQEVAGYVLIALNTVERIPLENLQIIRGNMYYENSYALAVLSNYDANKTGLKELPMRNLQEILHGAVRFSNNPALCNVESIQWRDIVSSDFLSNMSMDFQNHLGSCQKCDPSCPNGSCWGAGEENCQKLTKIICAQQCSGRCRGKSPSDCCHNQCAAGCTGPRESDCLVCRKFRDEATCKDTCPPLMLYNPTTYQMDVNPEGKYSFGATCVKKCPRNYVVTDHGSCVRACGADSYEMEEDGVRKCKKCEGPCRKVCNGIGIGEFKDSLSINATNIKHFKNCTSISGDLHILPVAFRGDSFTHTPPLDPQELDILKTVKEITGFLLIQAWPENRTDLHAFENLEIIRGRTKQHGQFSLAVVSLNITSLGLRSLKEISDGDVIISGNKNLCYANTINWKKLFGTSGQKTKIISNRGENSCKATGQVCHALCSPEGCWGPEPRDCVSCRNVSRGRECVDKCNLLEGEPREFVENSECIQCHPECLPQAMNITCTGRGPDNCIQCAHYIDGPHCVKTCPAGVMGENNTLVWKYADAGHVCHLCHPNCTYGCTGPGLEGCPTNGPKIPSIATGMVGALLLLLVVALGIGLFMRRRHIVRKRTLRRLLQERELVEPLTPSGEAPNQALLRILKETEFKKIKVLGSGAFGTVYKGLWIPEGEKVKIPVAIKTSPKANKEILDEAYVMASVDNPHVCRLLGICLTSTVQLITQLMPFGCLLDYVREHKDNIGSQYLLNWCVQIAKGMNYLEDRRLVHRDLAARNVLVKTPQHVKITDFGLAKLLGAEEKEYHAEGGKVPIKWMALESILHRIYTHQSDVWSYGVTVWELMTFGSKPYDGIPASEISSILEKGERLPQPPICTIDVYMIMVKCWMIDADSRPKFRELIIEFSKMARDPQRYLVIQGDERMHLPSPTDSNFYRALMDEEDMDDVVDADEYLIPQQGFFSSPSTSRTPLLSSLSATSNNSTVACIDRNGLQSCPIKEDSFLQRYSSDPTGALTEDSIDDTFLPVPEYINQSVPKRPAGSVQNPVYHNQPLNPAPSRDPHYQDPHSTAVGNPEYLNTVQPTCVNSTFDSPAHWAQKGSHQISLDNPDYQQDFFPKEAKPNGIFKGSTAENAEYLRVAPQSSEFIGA
Test: Proliferation inhibition assay, EGFR Exon19del transformed Ba/F3 cells

CHEM_SMILES | EC50
C=CC(=O)Nc1cccc(-n2c(=O)c(Oc3ccc(F)cc3F)cc3cnc(Nc4cnn(C)c4)nc32)c1 | < 100 nM

---

Target: HER2 InsWLV transformed Ba/F3 cells (Homo sapiens, UniProt P04626, INS773WL/M774V)
Construct: expressed in transfected cells; host or cells: Ba/F3
Sequence (P04626 with tags, fused parts or gaps INS773WL/M774V): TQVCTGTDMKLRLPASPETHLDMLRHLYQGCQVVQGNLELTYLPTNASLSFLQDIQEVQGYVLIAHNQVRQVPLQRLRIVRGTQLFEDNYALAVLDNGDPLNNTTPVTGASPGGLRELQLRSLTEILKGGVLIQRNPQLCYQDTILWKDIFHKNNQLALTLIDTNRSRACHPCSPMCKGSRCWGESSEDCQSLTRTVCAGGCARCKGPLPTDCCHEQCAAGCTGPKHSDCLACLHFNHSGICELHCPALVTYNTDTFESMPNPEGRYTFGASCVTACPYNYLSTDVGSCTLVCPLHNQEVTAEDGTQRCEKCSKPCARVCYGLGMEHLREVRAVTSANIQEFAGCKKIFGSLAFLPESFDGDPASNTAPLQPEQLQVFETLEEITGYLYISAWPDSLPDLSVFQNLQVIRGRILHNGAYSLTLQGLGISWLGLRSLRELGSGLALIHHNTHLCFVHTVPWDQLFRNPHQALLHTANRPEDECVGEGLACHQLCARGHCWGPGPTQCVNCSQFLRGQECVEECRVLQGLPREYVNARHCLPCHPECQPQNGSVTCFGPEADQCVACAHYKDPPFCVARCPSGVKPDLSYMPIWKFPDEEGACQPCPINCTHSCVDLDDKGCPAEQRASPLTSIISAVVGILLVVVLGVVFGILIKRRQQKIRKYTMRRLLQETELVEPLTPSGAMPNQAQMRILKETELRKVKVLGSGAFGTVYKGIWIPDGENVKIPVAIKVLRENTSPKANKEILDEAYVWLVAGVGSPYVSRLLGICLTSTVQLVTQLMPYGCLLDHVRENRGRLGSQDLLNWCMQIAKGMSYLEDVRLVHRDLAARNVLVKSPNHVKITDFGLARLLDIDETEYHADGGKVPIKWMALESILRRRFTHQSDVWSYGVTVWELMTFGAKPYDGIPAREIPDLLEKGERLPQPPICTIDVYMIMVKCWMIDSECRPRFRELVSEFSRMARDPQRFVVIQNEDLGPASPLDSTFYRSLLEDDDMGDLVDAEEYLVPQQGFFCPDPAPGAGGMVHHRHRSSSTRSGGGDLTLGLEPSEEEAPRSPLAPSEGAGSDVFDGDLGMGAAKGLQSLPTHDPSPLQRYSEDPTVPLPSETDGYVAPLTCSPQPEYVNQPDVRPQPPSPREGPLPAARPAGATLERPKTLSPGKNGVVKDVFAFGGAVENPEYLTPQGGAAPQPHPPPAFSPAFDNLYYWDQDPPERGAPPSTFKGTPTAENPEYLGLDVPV
Experiment: Proliferation inhibition assay, HER2 InsWLV transformed Ba/F3 cells
Format: cell-based
Conditions: MTS assay, 72 hours, Table 10 key
pEC50: −log10 of the molar value.
Below, each entry is listed alongside its reported pEC50.

COMPOUND | pEC50
C=CC(=O)Nc1cc(Nc2ncc3cc(Oc4ccc(F)c(Cl)c4)c(=O)n(C)c3n2)c(OC)cc1N(C)CCN(C)C [Compound 137] | > 6.70
C=CC(=O)N1C[C@H](Cn2c(=O)c(Oc3ccc(F)cc3F)cc3cnc(Nc4cnn(C)c4)nc32)[C@@H](OC)C1 [Compound 102] | > 6.70
C=CC(=O)Nc1cc(Nc2ncc3cc(Oc4ccc(F)cc4F)c(=O)n(CC(F)(F)F)c3n2)c(OC)cc1N(C)CCN(C)C [Compound 85] | > 6.70
CC#CC(=O)Nc1cc(Nc2ncc3cc(Oc4ccc(F)cc4F)c(=O)n(C)c3n2)c(OC)cc1N(C)CCN(C)C [Compound 125] | 6.22 to 6.70
C=CC(=O)Nc1cccc(-n2c(=O)c(Oc3ccc(F)cc3F)cc3cnc(N)nc32)c1 [Compound 106] | > 6.70
C=CC(=O)Nc1ccc(OC)c(Nc2ncc3cc(Oc4ccc(F)cc4F)c(=O)n(CCN(C)C)c3n2)c1 [Compound 94] | 6.22 to 6.70
CCC(=O)Nc1cc(Nc2ncc3cc(Oc4ccc(F)cc4F)c(=O)n(C)c3n2)c(OC)cc1N(C)CCN(C)C [Compound 111] | < 6.00

---

Molecular target: HER2 InsWLV transformed Ba/F3 cells (Homo sapiens, UniProt P04626, INS773WL/M774V)
Construct: expressed in transfected cells; host or cells: Ba/F3
Assay: Proliferation inhibition assay, HER2 InsWLV transformed Ba/F3 cells
Assay type: cell-based
Details: MTS assay, 72 hours, Table 10 key
OBSERVATION_TYPE: EC50

MOLECULE | OBSERVATION_TYPE | TEST_RESULT
C=CC(=O)Nc1cccc(-n2c(=O)c(Oc3c(F)cc(F)cc3F)cc3cnc(Nc4cnn(C)c4)nc32)c1 [Compound 82] | EC50 | < 200 nM
C=CC(=O)Nc1cc(Nc2ncc3cc(Oc4ccccc4)c(=O)n(C)c3n2)c(OC)cc1N(C)CCN(C)C [Compound 132] | EC50 | < 200 nM
C=CC(=O)Nc1cccc(-n2c(=O)c(Oc3cc(F)c(F)cc3F)cc3cnc(Nc4cnn(C)c4)nc32)c1 [Compound 87] | EC50 | < 200 nM
C=CC(=O)Nc1cc(Nc2ncc3cc(Oc4ccc(F)cc4F)c(=O)n(C)c3n2)ncc1N(C)CCN(C)C [Compound 105] | EC50 | 600 to 1000 nM
C=CC(=O)Nc1cccc(-n2c(=O)c(Oc3ccc(Cl)cc3F)cc3cnc(Nc4cnn(C)c4)nc32)c1 [Compound 89] | EC50 | < 200 nM
